Attribution: PubChem BioAssay

# Test system: F380Y/beta1
# assay.protocol: modulators of BK channel variants, profiling panel, selectivity assay, cell-based, U2OS BacMam, thallium flux, beta subunits (AID 1259406);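 note: initial slope of Thallos dye fluorescence rise after thallium is added; log ratio against the mean of 0.3% DMSO vehicle wells on the same plate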
# setup.conditions: at 30 µM
The source made the active and inactive calls.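 Rule for the calls: active = thallium flux through the channel raised or lowered by more than 3 SD from vehicle-only wells, actives on both sides; inactive = the rest.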
Response enum: T = active, F = inactive

Worked examples, 8 molecules total:
{"molecule": "CCOC(=O)c1ccc(OCC#Cc2ccc(C(F)(F)F)cn2)cc1", "label.class": "F"}
{"molecule": "O=C1c2cc(S(=O)(=O)O)ccc2CCC1S(=O)(=O)O (centres undefined)", "label.class": "T"}
{"molecule": "CC(C)(C)NC(=O)NCCO", "label.class": "F"}
{"molecule": "Cc1cccc(CCN2CCC(C(=O)c3ccc(NS(C)(=O)=O)cc3)CC2)n1", "label.class": "F"}
{"molecule": "CC12CCC(c3c1nn(-c1ccccc1)c3C(F)(F)F)C2(C)C (centres undefined)", "label.class": "F"}
{"molecule": "CCOC(=O)c1c[nH]n2c(=O)c3c(nc12)CCC3", "label.class": "F"}
{"molecule": "O=C(Cn1nnc(N2CCCC2)n1)NN=Cc1ccc(Cl)cc1", "label.class": "F"}
{"molecule": "COc1ccc(C(=O)NNC(=O)c2c(OC)cc(C(F)(F)F)cc2C(F)(F)F)cc1", "label.class": "F"}

Could you now look at the following molecule, please?
Q. # fetch the recorded call for C=CC[C@@H]1C=C(C)C[C@H](C)C[C@H](OC)[C@H]2O[C@@](O)(C(=O)C(=O)N3CCCC[C@H]3C(=O)O[C@H](/C(C)=C/[C@@H]3CC[C@@H](O)[C@H](OC)C3)[C@H](C)[C@@H](O)CC1=O)[C@H](C)C[C@@H]2OC here
A. F

---

Recorded inhibition values for a group of compounds are listed next.
# target.under.test: L-lactate dehydrogenase (Plasmodium falciparum (isolate CDC / Honduras)) (UniProt Q27743)
# Sequence (Q27743 whole entry, looked up): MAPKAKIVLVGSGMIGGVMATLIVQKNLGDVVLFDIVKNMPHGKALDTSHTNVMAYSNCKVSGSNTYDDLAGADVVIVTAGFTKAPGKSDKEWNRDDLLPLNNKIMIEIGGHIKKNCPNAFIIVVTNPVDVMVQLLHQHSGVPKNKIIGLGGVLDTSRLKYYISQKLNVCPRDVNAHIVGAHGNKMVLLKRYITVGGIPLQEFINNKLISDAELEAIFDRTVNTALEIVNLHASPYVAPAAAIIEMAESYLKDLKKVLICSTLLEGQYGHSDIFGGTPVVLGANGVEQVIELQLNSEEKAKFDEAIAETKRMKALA
# assay.protocol: PfLDH activity inhibition – cell lysate, 3D7 strain, counter-screen for P. falciparum growth inhibition project (AID 2304);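 note: 0% = vehicle and 100% = reference inhibitor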
# setup.conditions: P. falciparum 3D7 crude extract, LDH APAD/NBT absorbance; at 2 µM; active compounds read high
Report the value in % with no unit label.

Q. I am curious: what inhibition value has been reported for Cc1nnc(-c2cccc(Nc3ccnc4cc(-c5nccs5)ccc34)c2)o1 ?
A. -2

Q. I am curious: what inhibition value has been reported for CN(C)CCCOC(=O)c1cc2cc(-c3ccccc3)ccc2n1S(=O)(=O)Cc1ccccc1 ?
A. -5

Q. I am curious: what inhibition value has been reported for O=C(NCCN1CCCC1)N1CCCN(c2ncnc3cc(-c4ccc(F)cc4)sc23)CC1 ?
A. 5

Q. I am curious: what inhibition value has been reported for O=C(Nc1ccc(-c2nc3ccccc3[nH]2)cc1)c1cccc(S(=O)(=O)N2CCCC2)c1 ?
A. -5

Q. I am curious: what inhibition value has been reported for CCN(CC)CCCOc1ccc(Nc2nccc(-c3c(-c4cccc(NC(=O)c5c(F)cccc5F)c4)nn4ccccc34)n2)cc1F ?
A. -5

---

# target.under.test: L-lactate dehydrogenase (Plasmodium falciparum (isolate CDC / Honduras)) (UniProt Q27743)
# assay.protocol: PfLDH activity inhibition – cell lysate, 3D7 strain, counter-screen for P. falciparum growth inhibition project (AID 2304);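 note: 0% = vehicle and 100% = reference inhibitor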
# setup.conditions: P. falciparum 3D7 crude extract, LDH APAD/NBT absorbance; at 2 µM; active compounds read high
Recorded inhibition values for a group of molecules are listed next.
Report the value in % with no unit label.

Reference set (3 entries):
{"molecule": "Cc1cc(Nc2ncc(Cl)c(Nc3ccccc3C(N)=O)n2)n[nH]1", "inhibition [%]": -1}
{"molecule": "CC(C)(C)OC(=O)NCC(=O)N(Cc1ccccc1)Cc1ccccc1", "inhibition [%]": 2}
{"molecule": "CC(=O)N1c2ccccc2C(C)=CC1(C)C", "inhibition [%]": 1}

Q. I am curious: what inhibition value has been reported for COc1ccc(-c2cnc3ccc(N4CCCC4)nn23)cc1OC ?
A. 0
